- Tested on: CP201
- EXPERIMENTAL_DETAILS: qHTS profiling for inhibitors of Plasmodium falciparum proliferation (AID 504749); further: nearly all actives have a fitted effect of over 60% in size
- SETUP_CONDITIONS: P. falciparum in erythrocytes, SYBR Green DNA, 72 h; series mostly up to 28.7 µM
Records with an inconclusive call do not appear. The source made the active and inactive calls. The call rests on the fitted dose curve; in most records, active means well fitted inhibition curve with a large enough effect; inconclusive means small, poorly fitted or top-dose-only effect; inactive means flat fitted curve, though single readings scatter.
Can you answer with just one of these options? TRUE (active), FALSE (inactive)

**Q:** What classification did CCC1=C(C)CN(C(=O)NCCc2ccc(S(=O)(=O)NC(=O)NC3CCC(C)CC3)cc2)C1=O (centres undefined) end up with in this test?
**A:** FALSE

**Q:** GET /call?item= `CCc1nc(N)nc(N)c1-c1ccc(Cl)cc1` returns the recorded outcome of this test.
**A:** FALSE

**Q:** Assay result, entry `O=C1CCc2ccc(OCCCCN3CCN(c4cccc(Cl)c4Cl)CC3)cc2N1` — outcome?
**A:** FALSE

**Q:** Please let me know the test result on file for `Cc1nc(Nc2ncc(C(=O)Nc3c(C)cccc3Cl)s2)cc(N2CCN(CCO)CC2)n1` .
**A:** FALSE

**Q:** Lab log entry: Cc1ncc([N+](=O)[O-])n1CC(C)O (centres undefined) — outcome as called in the assay?
**A:** FALSE

**Q:** Answer briefly: the call reported for `Cc1nc2n(c(=O)c1CCN1CCC(c3noc4cc(F)ccc34)CC1)CCCC2` in this assay.
**A:** FALSE

**Q:** How was Nc1ccn([C@@H]2O[C@H](CO)[C@@H](O)C2O)c(=O)n1 (some centres undefined) classified in this test?
**A:** FALSE

**Q:** Please share the test call associated with `Nc1ccc(S(N)(=O)=O)cc1` .
**A:** FALSE

**Q:** Called result for `CN(C)C(=O)COC(=O)Cc1ccc(OC(=O)c2ccc(N=C(N)N)cc2)cc1`
**A:** FALSE

**Q:** Could you check what this test reported for `O=C(O)c1cc(=O)c2c(OCC(O)COc3cccc4oc(C(=O)O)cc(=O)c34)cccc2o1` ?
**A:** FALSE

**Q:** Hi, do you know how `CC(C)[C@H](N)C(=O)OCCOCn1cnc2c(=O)[nH]c(N)nc21` came out in this test?
**A:** FALSE

**Q:** Per the records of this test, what outcome belongs to `Cc1ccc(C)c(OCCCC(C)(C)C(=O)O)c1` ?
**A:** FALSE

**Q:** Could you kindly confirm the outcome this assay logged for `O=C(O)CCNC(=O)c1ccc(N=Nc2ccc(O)c(C(=O)O)c2)cc1` ?
**A:** FALSE

**Q:** Could you kindly confirm the outcome this assay logged for `CCOC(=O)c1c(C)n(C)c2ccc(O)cc12` ?
**A:** FALSE

**Q:** Record lookup: outcome of this test for `Nc1cc(C(Cl)=C(Cl)Cl)c(S(N)(=O)=O)cc1S(N)(=O)=O` ?
**A:** FALSE

**Q:** Dear colleague, could you share the recorded outcome for CC1=C(C)C(=O)C(C(CCCCCC(=O)O)c2ccccc2)=C(C)C1=O (centres undefined) when you have a moment?
**A:** FALSE

**Q:** Could you kindly confirm the outcome this assay logged for `CCCCc1ccc2nc(NC(=O)OC)[nH]c2c1` ?
**A:** FALSE

**Q:** // outcome(item) with item = `Cc1cccc(C)c1OCC(=O)N[C@@H](Cc1ccccc1)[C@@H](O)C[C@H](Cc1ccccc1)NC(=O)[C@H](C(C)C)N1CCCNC1=O`
**A:** TRUE

**Q:** Called result for `Cc1cc2cc3c(C)cc(=O)oc3c(C)c2o1`
**A:** FALSE

**Q:** Fill in: this test's call for `N=C(N=C(N)N)N1CCOCC1` is ___
**A:** FALSE

**Q:** Please share the test call associated with `O=C(NCCO[N+](=O)[O-])c1cccnc1` .
**A:** FALSE

**Q:** Hi, do you know how `c1ccc2[nH]c(-c3cscn3)nc2c1` came out in this test?
**A:** FALSE

**Q:** Returns: the outcome recorded for `CN(C)CCc1c[nH]c2ccc(Cn3cncn3)cc12` in this assay.
**A:** FALSE

**Q:** For `CNC[C@@H](O)[C@@H](O)[C@H](O)[C@H](O)CO` , which call appears in the assay record?
**A:** FALSE

**Q:** Per the assay record, what outcome was assigned to CCN(CCO)CCCC(C)Nc1ccnc2cc(Cl)ccc12 (centres undefined) ?
**A:** FALSE

**Q:** Query: recorded result category for `C[C@H](Cn1cnc2c(N)ncnc21)OCP(=O)(O)O` in this test
**A:** FALSE

**Q:** Dear all, I need the recorded test outcome for `O=C(O)c1cccc(-c2noc(-c3ccccc3F)n2)c1` , thank you.
**A:** FALSE

**Q:** # lookup: test call for COC(=O)C1=C(C)NC(C)=C(C(=O)OCCCN2CCC(c3ccccc3)(c3ccccc3)CC2)C1c1cccc([N+](=O)[O-])c1 (centres undefined)
**A:** TRUE

**Q:** What did this assay record as the result for `O=P(O)(O)C(O)(Cn1ccnc1)P(=O)(O)O` ?
**A:** FALSE
